Target: NR1/NR2A (Rattus norvegicus, UniProt P35439+Q00959)
Sequence (Q00959 23-1464, other chains not shown): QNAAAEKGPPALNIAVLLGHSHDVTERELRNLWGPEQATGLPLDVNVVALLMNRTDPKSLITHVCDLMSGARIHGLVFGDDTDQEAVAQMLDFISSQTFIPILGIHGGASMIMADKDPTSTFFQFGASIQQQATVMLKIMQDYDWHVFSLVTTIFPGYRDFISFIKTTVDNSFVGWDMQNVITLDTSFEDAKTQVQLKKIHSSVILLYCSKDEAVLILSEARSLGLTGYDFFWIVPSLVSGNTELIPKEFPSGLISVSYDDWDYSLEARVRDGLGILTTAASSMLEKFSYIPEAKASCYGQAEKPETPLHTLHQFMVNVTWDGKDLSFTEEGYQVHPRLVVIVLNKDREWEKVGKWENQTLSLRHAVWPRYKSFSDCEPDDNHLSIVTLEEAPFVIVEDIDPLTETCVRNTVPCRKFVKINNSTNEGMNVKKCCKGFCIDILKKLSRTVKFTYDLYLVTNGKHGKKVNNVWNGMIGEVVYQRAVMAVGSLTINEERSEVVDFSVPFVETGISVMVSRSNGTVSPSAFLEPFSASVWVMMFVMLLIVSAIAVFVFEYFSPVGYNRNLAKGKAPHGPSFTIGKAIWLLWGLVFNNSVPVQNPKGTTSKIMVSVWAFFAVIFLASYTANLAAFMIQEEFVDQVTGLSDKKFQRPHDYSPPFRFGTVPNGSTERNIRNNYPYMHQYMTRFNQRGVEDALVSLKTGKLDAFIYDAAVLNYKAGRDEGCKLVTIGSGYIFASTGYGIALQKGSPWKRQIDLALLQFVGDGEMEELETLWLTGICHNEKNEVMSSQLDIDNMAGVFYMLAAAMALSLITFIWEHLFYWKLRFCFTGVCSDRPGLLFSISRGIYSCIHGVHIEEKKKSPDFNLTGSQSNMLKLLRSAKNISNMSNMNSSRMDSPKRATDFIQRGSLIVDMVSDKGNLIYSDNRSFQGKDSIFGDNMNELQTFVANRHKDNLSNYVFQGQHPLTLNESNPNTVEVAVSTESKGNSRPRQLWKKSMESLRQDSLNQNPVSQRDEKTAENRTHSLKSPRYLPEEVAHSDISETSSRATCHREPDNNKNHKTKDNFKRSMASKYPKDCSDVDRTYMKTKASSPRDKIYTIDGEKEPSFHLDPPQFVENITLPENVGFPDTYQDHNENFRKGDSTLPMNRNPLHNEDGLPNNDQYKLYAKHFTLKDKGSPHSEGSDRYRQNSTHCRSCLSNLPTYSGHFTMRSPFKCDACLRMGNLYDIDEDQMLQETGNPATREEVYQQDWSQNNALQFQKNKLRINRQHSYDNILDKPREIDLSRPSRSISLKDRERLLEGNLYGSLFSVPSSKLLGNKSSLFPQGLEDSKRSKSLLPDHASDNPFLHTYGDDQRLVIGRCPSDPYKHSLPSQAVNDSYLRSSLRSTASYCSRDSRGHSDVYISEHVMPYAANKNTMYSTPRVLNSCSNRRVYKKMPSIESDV
Assay: Two electrode voltage clamp, Xenopus oocytes expressing recombinant NR1/NR2A
Type: cell-based
Conditions: read-out: 2A percent effect at the maximum tested concentration
Protocol: Quality of synthesized cRNA was assessed by gel electrophoresis, and quantity was estimated by spectroscopy and gel electrophoresis. […] Two electrode voltage-clamp recordings were made 2-7 days post-injection as previously described. […] Oocytes were recorded under voltage clamp at −40 mV. […] The baseline leak current at −40 mV was measured before and after recording, and the full recording linearly corrected for any change in leak current. […]
Entries annotated with measured remaining activity at 100 µM
# number only, unit % dropped from output

[[record]]
smiles_record = "CC(C)N(C(=O)Oc1ccc(C(=O)Oc2ccc3cccc(N)c3c2)cc1)C(C)C"
number = 89

[[record]]
smiles_record = "CCN(CC)C(=O)Oc1ccc(C(=O)Nc2cccc3[nH]ccc23)cc1"
number = 88

[[record]]
smiles_record = "CCN(CC)C(=O)Oc1ccc(C(=O)Nc2cc(C)cc3c2NCC3)cc1"
number = 81

[[record]]
smiles_record = "CCN(CC)C(=O)Oc1ccc(C(=O)Nc2cccc3c2CCCC3)cc1"
number = 95

[[record]]
smiles_record = "CCN(CC)C(=O)Oc1ccc(C(=O)Nc2cc(C)cc3c(C)c[nH]c23)cc1"
number = 71


# query: remaining activity at 100 µM of entry `CCN(C)C(=O)Oc1ccc(C(=O)Nc2cccc3cc[nH]c23)cc1` 89

And what about the molecule `CN(C)C(=O)Oc1ccc(C(=O)Nc2cccc3ccccc23)cc1` ? 110

And what about the molecule `CC(C)N(C(=O)Oc1ccc(C(=O)Nc2ccc3cc[nH]c3c2)cc1)C(C)C` ? 74

And what about the molecule `CCN(CC)C(=O)Oc1ccc(C(=O)Nc2cc(C)cc(C)c2)cc1` ? 79

---

target: NR1/NR2C (Rattus norvegicus, UniProt P35439+Q00961); assay: Two electrode voltage clamp, Xenopus oocytes expressing recombinant NR1/NR2C; assay type: cell-based; conditions: at 100 μM; read-out: 2C percent effect at the maximum tested concentration
Sequence (Q00961 20-1237, other chains not shown): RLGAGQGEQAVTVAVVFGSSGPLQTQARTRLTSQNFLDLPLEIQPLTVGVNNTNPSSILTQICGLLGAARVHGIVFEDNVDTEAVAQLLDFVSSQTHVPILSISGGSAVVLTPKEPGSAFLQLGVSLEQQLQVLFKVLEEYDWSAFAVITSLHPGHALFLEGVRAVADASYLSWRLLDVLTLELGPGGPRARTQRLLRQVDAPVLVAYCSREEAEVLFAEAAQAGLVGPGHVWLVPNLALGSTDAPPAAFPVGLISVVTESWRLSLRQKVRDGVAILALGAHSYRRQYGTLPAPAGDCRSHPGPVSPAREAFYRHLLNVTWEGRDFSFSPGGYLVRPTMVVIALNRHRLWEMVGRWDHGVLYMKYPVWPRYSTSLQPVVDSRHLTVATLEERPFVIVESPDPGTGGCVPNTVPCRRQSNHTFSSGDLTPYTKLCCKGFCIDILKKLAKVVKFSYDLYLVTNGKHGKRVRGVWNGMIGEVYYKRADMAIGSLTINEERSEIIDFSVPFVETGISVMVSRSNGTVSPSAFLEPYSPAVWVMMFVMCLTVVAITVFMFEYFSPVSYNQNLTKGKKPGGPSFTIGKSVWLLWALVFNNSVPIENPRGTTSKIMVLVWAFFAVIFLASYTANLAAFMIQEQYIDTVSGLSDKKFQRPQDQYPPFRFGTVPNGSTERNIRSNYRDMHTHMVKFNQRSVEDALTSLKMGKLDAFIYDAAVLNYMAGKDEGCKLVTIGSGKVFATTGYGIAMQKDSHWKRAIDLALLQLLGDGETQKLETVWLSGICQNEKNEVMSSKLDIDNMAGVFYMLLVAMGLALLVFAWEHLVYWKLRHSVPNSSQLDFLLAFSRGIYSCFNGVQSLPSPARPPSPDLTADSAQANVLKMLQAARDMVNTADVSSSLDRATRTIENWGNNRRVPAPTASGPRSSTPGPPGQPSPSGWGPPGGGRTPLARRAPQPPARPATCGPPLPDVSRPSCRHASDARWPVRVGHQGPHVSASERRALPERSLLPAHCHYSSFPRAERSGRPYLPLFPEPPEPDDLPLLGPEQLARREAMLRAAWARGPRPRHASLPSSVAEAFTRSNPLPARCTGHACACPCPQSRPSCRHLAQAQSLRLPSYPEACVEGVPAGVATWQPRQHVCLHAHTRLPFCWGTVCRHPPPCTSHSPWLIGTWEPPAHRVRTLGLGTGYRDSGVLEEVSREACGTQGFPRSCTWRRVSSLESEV
Kindly apply the following: rule met if remaining activity at 100 µM is less than 90%, rule not met in every other case.

Look over these answered cases.
[[record]]
molecule = "CC(C)N(C(=O)Oc1ccc(C(=O)Oc2cccc3c(N)cccc23)cc1)C(C)C [1063-14]"
assigned_class = "rule met"

[[record]]
molecule = "O=C(Nc1cccc2ccccc12)c1ccc(OC(=O)C2CC2)cc1 [1063-10]"
assigned_class = "rule met"


hey, is remaining activity at 100 µM for CCC(CC)C(=O)Oc1ccc(C(=O)Nc2cccc3ccccc23)cc1 [1063-9] lower than 90% or not? rule not met

---

Entries annotated with measured pIC50
Molecular target: NR1/NR2A (Rattus norvegicus, UniProt P35439+Q00959)
Assay: Two electrode voltage clamp, Xenopus oocytes expressing recombinant NR1/NR2A
Type: cell-based
Protocol: Quality of synthesized cRNA was assessed by gel electrophoresis, and quantity was estimated by spectroscopy and gel electrophoresis. […] Two electrode voltage-clamp recordings were made 2-7 days post-injection as previously described. […] Oocytes were recorded under voltage clamp at −40 mV. […] The baseline leak current at −40 mV was measured before and after recording, and the full recording linearly corrected for any change in leak current. […]
pIC50 is defined as minus the log10 of a concentration measured in mol/L.

# query: pIC50 of entry `CCN(CC)C(=O)Oc1ccc(C(=O)Nc2cccc3ccccc23)cc1` 3.36

And what about the molecule `CCN(CC)C(=O)Oc1ccc(C(=O)Nc2cc(C(=O)OC)cc3c(C)c[nH]c23)cc1` ? 3.75

And what about the molecule `CCN(CC)C(=O)Oc1ccc(C(=O)Nc2cccc3cc[nH]c23)cc1` ? 2.62

And what about the molecule `CC(C)N(C(=O)Oc1ccc(C(=O)Nc2cccc3ccccc23)cc1)C(C)C` ? 3.06

---

target: NR1/NR2B (Rattus norvegicus, UniProt P35439+Q00960); test: Two electrode voltage clamp, Xenopus oocytes expressing recombinant NR1/NR2B; assay type: cell-based
Quantity: pIC50
pIC50 is defined as minus the log10 of a concentration measured in mol/L.

[[record]]
smiles_record = "CCN(CC)C(=O)Oc1ccc(C(=O)Nc2cccc3c2CCCC3)cc1"
number = 3.67

[[record]]
smiles_record = "CCN(CC)C(=O)Oc1ccc(C(=O)Nc2cc(C)cc3c2NCC3)cc1"
number = 3.67

[[record]]
smiles_record = "CCN(CC)C(=O)Oc1ccc(C(=O)Nc2cccc3cc[nH]c23)cc1"
number = 3.03

[[record]]
smiles_record = "CCN(CC)C(=O)Oc1ccc(C(=O)Nc2cc(C(=O)OC)cc3c(C)c[nH]c23)cc1"
number = 3.62

[[record]]
smiles_record = "CCN(CC)C(=O)Oc1ccc(C(=O)Nc2cccc3ccccc23)cc1"
number = 3.85


# query: pIC50 of entry `CC(C)N(C(=O)Oc1ccc(C(=O)Nc2cccc3ccccc23)cc1)C(C)C` 3.80

And what about the compound `CC(C)N(C(=O)Oc1ccc(C(=O)Nc2ccc3cc[nH]c3c2)cc1)C(C)C` ? 4.36

And what about the compound `C=CCN(CC=C)C(=O)Oc1ccc(C(=O)Nc2cccc3ccccc23)cc1` ? 3.14

And what about the compound `CN(C)C(=O)Oc1ccc(C(=O)Nc2cccc3ccccc23)cc1` ? 2.84

And what about the compound `CCN(CC)C(=O)Oc1ccc(C(=O)Nc2cccc3[nH]ccc23)cc1` ? 3.25

And what about the compound `CCN(CC)C(=O)Oc1ccc(C(=O)Nc2cc(C)cc(C)c2)cc1` ? 4.05

And what about the compound `CCN(CC)C(=O)Oc1ccc(C(=O)Nc2cc(C)cc3c(C)c[nH]c23)cc1` ? 3.44

---

target: NR1/NR2D (Rattus norvegicus, UniProt P35439+Q62645); experiment: Two electrode voltage clamp, Xenopus oocytes expressing recombinant NR1/NR2D; assay type: cell-based
Sequence (Q62645 28-1323, other chains not shown): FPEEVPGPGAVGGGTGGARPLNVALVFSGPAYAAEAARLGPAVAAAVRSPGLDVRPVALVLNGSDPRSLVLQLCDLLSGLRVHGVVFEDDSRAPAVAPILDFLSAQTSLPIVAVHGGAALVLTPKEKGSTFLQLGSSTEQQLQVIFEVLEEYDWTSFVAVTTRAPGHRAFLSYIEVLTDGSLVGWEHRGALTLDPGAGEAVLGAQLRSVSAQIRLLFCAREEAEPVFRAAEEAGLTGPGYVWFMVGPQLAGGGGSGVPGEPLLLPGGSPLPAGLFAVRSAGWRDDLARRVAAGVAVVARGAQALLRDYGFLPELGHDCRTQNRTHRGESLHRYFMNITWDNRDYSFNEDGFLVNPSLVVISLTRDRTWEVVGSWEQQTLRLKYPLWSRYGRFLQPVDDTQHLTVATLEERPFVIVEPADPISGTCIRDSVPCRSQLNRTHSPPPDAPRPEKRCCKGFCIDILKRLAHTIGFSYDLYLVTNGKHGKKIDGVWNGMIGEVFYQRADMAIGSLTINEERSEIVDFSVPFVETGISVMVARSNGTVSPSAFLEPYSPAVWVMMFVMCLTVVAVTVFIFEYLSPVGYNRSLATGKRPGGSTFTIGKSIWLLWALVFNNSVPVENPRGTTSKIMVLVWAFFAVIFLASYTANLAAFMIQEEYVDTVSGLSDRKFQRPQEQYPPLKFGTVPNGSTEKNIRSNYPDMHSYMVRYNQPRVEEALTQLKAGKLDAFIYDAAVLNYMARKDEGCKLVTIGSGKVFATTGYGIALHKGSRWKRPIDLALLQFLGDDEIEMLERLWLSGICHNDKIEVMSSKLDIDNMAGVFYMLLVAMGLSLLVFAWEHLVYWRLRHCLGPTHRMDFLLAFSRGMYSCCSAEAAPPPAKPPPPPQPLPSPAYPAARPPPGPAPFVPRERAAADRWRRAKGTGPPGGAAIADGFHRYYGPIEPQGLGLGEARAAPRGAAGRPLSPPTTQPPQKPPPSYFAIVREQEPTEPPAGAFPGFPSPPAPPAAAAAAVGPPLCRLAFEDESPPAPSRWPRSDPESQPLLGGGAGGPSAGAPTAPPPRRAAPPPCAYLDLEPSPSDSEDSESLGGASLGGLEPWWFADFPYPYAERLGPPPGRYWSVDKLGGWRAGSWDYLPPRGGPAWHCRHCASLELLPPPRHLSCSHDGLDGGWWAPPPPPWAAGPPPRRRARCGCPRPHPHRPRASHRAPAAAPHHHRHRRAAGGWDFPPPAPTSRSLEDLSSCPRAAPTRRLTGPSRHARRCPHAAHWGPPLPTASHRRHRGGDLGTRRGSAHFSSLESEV
pIC50: −log10 of the molar value.
# binarize pIC50: threshold 5 inclusive, high side Met, low side Not met

[[record]]
smiles_record = "CC(C)N(C(=O)Oc1ccc(C(=O)Oc2ccc3cccc(N)c3c2)cc1)C(C)C"
assigned_class = "Not met"

[[record]]
smiles_record = "CN(C)C(=O)Oc1ccc(C(=O)Nc2cccc3ccccc23)cc1"
assigned_class = "Not met"

[[record]]
smiles_record = "CCN(CC)C(=O)Oc1ccc(C(=O)Nc2cc(C)cc3c(C)c[nH]c23)cc1"
assigned_class = "Not met"

[[record]]
smiles_record = "CCN(CC)C(=O)Oc1ccc(C(=O)Nc2cccc3cc[nH]c23)cc1"
assigned_class = "Met"

[[record]]
smiles_record = "CC(C)N(C(=O)Oc1ccc(C(=O)Nc2cccc3ccccc23)cc1)C(C)C"
assigned_class = "Met"

[[record]]
smiles_record = "C=CCN(CC=C)C(=O)Oc1ccc(C(=O)Nc2cccc3ccccc23)cc1"
assigned_class = "Not met"

[[record]]
smiles_record = "CCN(CC)C(=O)Oc1ccc(C(=O)Nc2cccc3ccccc23)cc1"
assigned_class = "Met"

[[record]]
smiles_record = "CCN(CC)C(=O)Oc1ccc(C(=O)Nc2cccc3[nH]ccc23)cc1"
assigned_class = "Met"


Turning now to a further record.
Please indicate if the recorded pIC50 for `CCN(C)C(=O)Oc1ccc(C(=O)Nc2cccc3cc[nH]c23)cc1` meets or exceeds 5. Not met

---

Entries annotated with measured remaining activity at 100 µM
molecular target: NR1/NR2D (Rattus norvegicus, UniProt P35439+Q62645); assay: Two electrode voltage clamp, Xenopus oocytes expressing recombinant NR1/NR2D; type: cell-based; settings: at 100 μM; read-out: 2D percent effect at the maximum tested concentration
# number only, unit % dropped from output

Illustrative cases are given below, each with its answer.
[[record]]
smiles_record = "CC(C)N(C(=O)Oc1ccc(C(=O)Oc2cccc3c(N)cccc23)cc1)C(C)C"
system_name = "NR1/NR2D (Rattus norvegicus, UniProt P35439+Q62645)"
quantity = "remaining activity at 100 µM"
number = 75

[[record]]
smiles_record = "CCC(CC)C(=O)Oc1ccc(C(=O)Nc2cccc3ccccc23)cc1"
system_name = "NR1/NR2D (Rattus norvegicus, UniProt P35439+Q62645)"
quantity = "remaining activity at 100 µM"
number = 86


Now for the compound whose remaining activity at 100 µM we want.
# query: remaining activity at 100 µM of entry `CCN(CC)C(=O)Oc1cccc(C(=O)Nc2cccc3ccccc23)c1` 84

---

Target: NR1/NR2C (Rattus norvegicus, UniProt P35439+Q00961)
Test: Two electrode voltage clamp, Xenopus oocytes expressing recombinant NR1/NR2C
Assay type: cell-based
Procedure: Quality of synthesized cRNA was assessed by gel electrophoresis, and quantity was estimated by spectroscopy and gel electrophoresis. […] Two electrode voltage-clamp recordings were made 2-7 days post-injection as previously described. […] Oocytes were recorded under voltage clamp at −40 mV. […] The baseline leak current at −40 mV was measured before and after recording, and the full recording linearly corrected for any change in leak current. […]
Class membership depends on IC50 alone; the intervals are lower: < 10 µM; middle: ≥ 10 µM and < 60 µM; upper: ≥ 60 µM

Look over these answered cases.
[[record]]
molecule = "CCN(CC)C(=O)Oc1ccc(C(=O)Nc2cc(C)cc(C)c2)cc1 [1063-17]"
assigned_class = "middle"

[[record]]
molecule = "CC(C)N(C(=O)Oc1ccc(C(=O)Nc2ccc3cc[nH]c3c2)cc1)C(C)C [1063-15]"
assigned_class = "middle"

[[record]]
molecule = "CCN(CC)C(=O)Oc1ccc(C(=O)Nc2cc(C)cc3c2NCC3)cc1 [1063-32]"
assigned_class = "middle"

[[record]]
molecule = "C=CCN(CC=C)C(=O)Oc1ccc(C(=O)Nc2cccc3ccccc23)cc1 [1063-5]"
assigned_class = "middle"

[[record]]
molecule = "CCN(CC)C(=O)Oc1ccc(C(=O)Nc2cc(C)cc3c(C)c[nH]c23)cc1 [1063-34]"
assigned_class = "upper"


Assign a category based on measured IC50 for CCN(CC)C(=O)Oc1ccc(C(=O)Nc2cccc3cc[nH]c23)cc1 [1063-20] and give only the class name. lower

And what about the molecule CC(C)N(C(=O)Oc1ccc(C(=O)Nc2ccc3[nH]ccc3c2)cc1)C(C)C [1063-16] ? middle

And what about the molecule CC(C)N(C(=O)Oc1ccc(C(=O)Nc2cccc3ccccc23)cc1)C(C)C [1063-4] ? lower

And what about the molecule CCN(CC)C(=O)Oc1ccc(C(=O)Nc2ccc3c(c2)CCCC3)cc1 [1063-19] ? middle

And what about the molecule CCN(C)C(=O)Oc1ccc(C(=O)Nc2cccc3cc[nH]c23)cc1 [1063-30] ? upper

And what about the molecule CCN(CC)C(=O)Oc1ccc(C(=O)Nc2cccc3ccccc23)cc1 [1063-2] ? lower

And what about the molecule CC(C)N(C(=O)Oc1ccc(C(=O)Oc2ccc3cccc(N)c3c2)cc1)C(C)C [1063-13] ? upper

These data points were gathered from patent US20110319416A1.
